System: 485368-065-R4-J2-PDC spheroids with HUVEC/MSC, viability
test-method-notes: Anticancer human tumor 485368-065-R4-J2-PDC patient-derived pancreatic carcinoma cell line growth inhibition [CLK]; active means viability on the fitted dose curve at most 10% of control; inactive means the rest
experimental-parameters: second compound 3.16 µM; first compound 0.1 µM
Classes to choose from: active, inactive

Incoming: How did this test come out for CC1COCCN1c1cc(C2(S(C)(=N)=O)CC2)nc(-c2ccnc3[nH]ccc23)n1 (stereo not given) + CNC(=O)c1ccc(Nc2nc(OC3CCCC3)c3c(-c4ccc5nc(C)oc5c4)c[nH]c3n2)c(OC)c1 ?
Outgoing: inactive

Incoming: For this compound, state the assay outcome: CC(Nc1ccc2c(c1)OCCn1cc(N3C(=O)OCC3C(F)F)nc1-2)C(N)=O (stereo not given) + CN1CCN(c2cc(C(=O)Nc3cc4cc(-c5cnn(C)c5)ccc4cn3)ccn2)CC1
Outgoing: active

Others:
Incoming: What call does the record list for COc1ccc([C@@H](O)c2cc(-c3ncnc4cc(N5CCOCC5)ccc34)c(F)cc2Cl)nn1 + CN1CCN(c2cc(C(=O)Nc3cc4cc(-c5cnn(C)c5)ccc4cn3)ccn2)CC1 ?
Outgoing: active

Incoming: Could you please tell me the result logged for C=C(F)C(=O)N1CCN(c2nc(OCC3CCCN3C)nc3c2CCN(c2cccc4cccc(Cl)c24)C3)CC1CC#N (stereo not given) + CNC(=O)c1ccc(Nc2nc(OC3CCCC3)c3c(-c4ccc5nc(C)oc5c4)c[nH]c3n2)c(OC)c1 in this assay?
Outgoing: inactive

Incoming: Which outcome was assigned to CCc1c2c(nc3ccc(O)cc13)-c1cc3c(c(=O)n1C2)COC(=O)[C@]3(O)CC + CN1CCN(c2cc(C(=O)Nc3cc4cc(-c5cnn(C)c5)ccc4cn3)ccn2)CC1 in this test?
Outgoing: active

* * *

Test system: 485368-065-R4-J2-PDC spheroids with HUVEC/MSC, viability
test-method-notes: Anticancer human tumor 485368-065-R4-J2-PDC cell line growth inhibition [CLK];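 further: spheroids exposed to compounds for seven days; 100% = DMSO vehicle control wells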
experimental-parameters: second compound 3.16 µM; first compound 1 µM; stronger effect = lower value
viability, T/C reference
Form entry: value (%) — number only.

Incoming: Quick check: viability, T/C of COc1ccc([C@@H](O)c2cc(-c3ncnc4cc(N5CCOCC5)ccc34)c(F)cc2Cl)nn1 + CNC(=O)c1ccc(Nc2nc(OC3CCCC3)c3c(-c4ccc5nc(C)oc5c4)c[nH]c3n2)c(OC)c1 ?
Outgoing: 57

Incoming: Entry C=C(F)C(=O)N1CCN(c2nc(OCC3CCCN3C)nc3c2CCN(c2cccc4cccc(Cl)c24)C3)CC1CC#N (stereo unspecified) + CNC(=O)c1ccc(Nc2nc(OC3CCCC3)c3c(-c4ccc5nc(C)oc5c4)c[nH]c3n2)c(OC)c1 has what viability, T/C?
Outgoing: 78.1

Incoming: Give its viability, T/C value. Item: O=C(c1cc(Cc2n[nH]c(=O)c3ccccc23)ccc1F)N1CCN(C(=O)C2CC2)CC1 + CN1CCN(c2cc(C(=O)Nc3cc4cc(-c5cnn(C)c5)ccc4cn3)ccn2)CC1
Outgoing: 2.47

Incoming: Consider the compound shown here: CC(CO)NC(=O)c1cc(-c2ccc(Cl)cc2)nn(-c2cnn(C)c2)c1=O (stereo unspecified) + CN1CCN(c2cc(C(=O)Nc3cc4cc(-c5cnn(C)c5)ccc4cn3)ccn2)CC1 What is its recorded viability, T/C?
Outgoing: 1.32

* * *

System: 485368-065-R4-J2-PDC spheroids with HUVEC/MSC, viability
test-method-notes: Anticancer human tumor 485368-065-R4-J2-PDC cell line growth inhibition [CLK];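 further: spheroids exposed to compounds for seven days; 100% = DMSO vehicle control wells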
experimental-parameters: second compound 10 µM; first compound 0.1 µM; stronger effect = lower value
Mark t only when viability, T/C stays strictly below 2%. Values equal to the cut-off are f.

Reference set (4 entries):
Incoming: API: query returns whether the compound falls strictly under 2% in viability, T/C. Query: COc1ccc([C@@H](O)c2cc(-c3ncnc4cc(N5CCOCC5)ccc34)c(F)cc2Cl)nn1 + CNC(=O)c1ccc(Nc2nc(OC3CCCC3)c3c(-c4ccc5nc(C)oc5c4)c[nH]c3n2)c(OC)c1
Outgoing: f

Incoming: Strictly below 2% in viability, T/C? CCN1CCN(Cc2ccc(Nc3ncc(F)c(-c4cc(F)c5nc(C)n(C(C)C)c5c4)n3)nc2)CC1 + CN1CCN(c2cc(C(=O)Nc3cc4cc(-c5cnn(C)c5)ccc4cn3)ccn2)CC1
Outgoing: t

Incoming: Input COc1cccc2c1C(=O)c1c(O)c3c(c(O)c1C2=O)CC(O)(C(=O)CO)CC3OC1CC(N)C(O)C(C)O1 (stereo unspecified) + CN1CCN(c2cc(C(=O)Nc3cc4cc(-c5cnn(C)c5)ccc4cn3)ccn2)CC1 ; condition: viability, T/C strictly below 2%. Does it hold?
Outgoing: t

Incoming: Please determine if CC(=O)O[C@H]1C(=O)[C@@]2(C)[C@H]([C@H](OC(=O)c3ccccc3)[C@]3(O)C[C@H](OC(=O)[C@H](O)[C@@H](NC(=O)c4ccccc4)c4ccccc4)C(C)=C1C3(C)C)[C@]1(OC(C)=O)CO[C@@H]1C[C@@H]2O + CNC(=O)c1ccc(Nc2nc(OC3CCCC3)c3c(-c4ccc5nc(C)oc5c4)c[nH]c3n2)c(OC)c1 is below 2% in terms of viability, T/C.
Outgoing: f

More entries:
Incoming: Consider COc1ccc([C@@H](O)c2cc(-c3ncnc4cc(N5CCOCC5)ccc34)c(F)cc2Cl)nn1 + CN1CCN(c2cc(C(=O)Nc3cc4cc(-c5cnn(C)c5)ccc4cn3)ccn2)CC1 . Does its viability, T/C lie strictly below 2%?
Outgoing: t
